Values compiled from PubChem BioAssay (NCATS).

System: Tov-21-G
PROCEDURE_TEXT: Primary qHTS to identify gynecologic anti-cancer compounds using libraries of approved drugs and bioactive compounds (AID 1345084); note: nearly all actives have a fitted effect of over 55% in size
STATED_CONDITIONS: Gynecologic cancer cell panel viability, ATPlite luminescence, 48 h; series mostly up to 57.5 µM
Inconclusive results are not listed. Active and inactive are the calls of the source. Calls come from the whole dose curve; as a rule, active = well fitted cell-killing curve with a large enough effect; inconclusive = small, poorly fitted or top-dose-only effect, or effect the other way; inactive = flat fitted curve, though single readings scatter. Where a SMILES comes first, the peptide text is derived from it. [ ]: non-standard residue; d: D form. pGlu = O=C1CC[C@@H](C(=O)O)N1; Thz = O=C(O)[C@@H]1CSCN1
Labels: active, inactive

[
  {
    "MOLECULE": "NS(=O)(=O)c1ccc(-n2nc(C(F)(F)F)cc2-c2ccc(Cl)cc2)cc1",
    "CAT": "inactive"
  },
  {
    "MOLECULE": "CCCOC(=O)c1ccc(O)cc1",
    "CAT": "inactive"
  },
  {
    "MOLECULE": "Nc1ccc(O)c(C(=O)O)c1",
    "CAT": "inactive"
  },
  {
    "MOLECULE": "S=c1[nH]c2ccccc2s1",
    "CAT": "inactive"
  },
  {
    "MOLECULE": "NCCO",
    "CAT": "inactive"
  },
  {
    "MOLECULE": "Cc1ccc(O)c(-n2nc3ccccc3n2)c1",
    "CAT": "inactive"
  },
  {
    "MOLECULE": "O=C1CC[C@@H](C(=O)N2CSC[C@H]2C(=O)O)N1 ([pGlu]-[Thz]-OH)",
    "CAT": "inactive"
  },
  {
    "MOLECULE": "C=CCCCCCCCCC(=O)O",
    "CAT": "inactive"
  },
  {
    "MOLECULE": "CC(C(=O)O)c1ccc2c(c1)[nH]c1ccc(Cl)cc12 (centres undefined)",
    "CAT": "inactive"
  },
  {
    "MOLECULE": "c1ccc2sc(SN3CCOCC3)nc2c1",
    "CAT": "inactive"
  },
  {
    "MOLECULE": "COC(=O)c1nc(Cl)c(Cl)nc1N",
    "CAT": "active"
  },
  {
    "MOLECULE": "O=Cc1ccc(O)c(O)c1O",
    "CAT": "inactive"
  },
  {
    "MOLECULE": "Cc1nc2ccccc2n1Cc1ccc(Cl)cc1",
    "CAT": "inactive"
  },
  {
    "MOLECULE": "c1ccc(CCNc2nc(-c3ccccc3)cs2)cc1",
    "CAT": "inactive"
  }
]

----------
PROCEDURE_TEXT: HTS Assay for Allosteric Antagonists of the Human D2 Dopamine Receptor: Hit Validation in HTRF (AID 624455);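 note: stable D1 dopamine receptor cell line scored for blocking the D1 response; % is set by controls: 0 for no effect and ±100 for the full control effect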
STATED_CONDITIONS: Cells stably expressing D1 dopamine receptor, inhibition mode; series mostly up to 46.1 µM
Results filed as inconclusive are left out. Active and inactive are the calls of the source. Calls follow the shape of the dose curve; as a rule, active = well fitted inhibition curve with a large enough effect; inconclusive = small, poorly fitted or top-dose-only effect; inactive = no such curve, though single readings can be large or run the other way.

[
  {
    "MOLECULE": "CCCCCCCC/C=C\\CCCCCCCC(=O)NCCO",
    "outcome": "inactive"
  },
  {
    "MOLECULE": "O=C(O)[C@@H]1C[C@H](C(=O)O)N1",
    "outcome": "inactive"
  },
  {
    "MOLECULE": "NC(CCCP(=O)(O)O)C(=O)O (configuration not stated)",
    "outcome": "inactive"
  },
  {
    "MOLECULE": "c1cnc2c(c1)ccc1cccnc12",
    "outcome": "inactive"
  },
  {
    "MOLECULE": "CC(C)NCC(O)COc1cccc2ccccc12 (configuration not stated)",
    "outcome": "inactive"
  },
  {
    "MOLECULE": "Clc1ccc(N2CCN(Cc3cc4ccccn4n3)CC2)cc1",
    "outcome": "inactive"
  },
  {
    "MOLECULE": "COc1ccccc1CNCCCCCCNCCCCCCCCNCCCCCCNCc1ccccc1OC",
    "outcome": "inactive"
  }
]

----------
Tested on: ICS
PROCEDURE_TEXT: qHTS profiling for inhibitors of Plasmodium falciparum proliferation (AID 504749); note: nearly all actives have a fitted effect of over 60% in size
STATED_CONDITIONS: P. falciparum in erythrocytes, SYBR Green DNA, 72 h; series mostly up to 28.7 µM
Records with an inconclusive call do not appear. Calls of active or inactive are those of the source. Calls come from the whole dose curve; as a rule, active = well fitted inhibition curve with a large enough effect; inconclusive = small, poorly fitted or top-dose-only effect; inactive = flat fitted curve, though single readings scatter.
Labels: Y = active, N = inactive

[
  {
    "COMPOUND": "C=C(Nc1ccc(OCC)cc1)Nc1ccc(OCC)cc1",
    "CAT": "N"
  },
  {
    "COMPOUND": "CN1[C@@H]2CC[C@H]1CC(OC(=O)C(CO)c1ccccc1)C2 (stereo not given in full)",
    "CAT": "N"
  },
  {
    "COMPOUND": "O=C(O)[C@H](CC(=O)N1C[C@H]2CCCC[C@H]2C1)Cc1ccccc1",
    "CAT": "N"
  },
  {
    "COMPOUND": "c1ccc2sc(SN3CCOCC3)nc2c1",
    "CAT": "Y"
  },
  {
    "COMPOUND": "O=C(O)Cc1ccc(-c2ccccc2)cc1",
    "CAT": "N"
  },
  {
    "COMPOUND": "COc1ccc(-c2cc(=S)ss2)cc1",
    "CAT": "Y"
  },
  {
    "COMPOUND": "O=c1[nH]c2ccccc2n1CCCN1CCN(C(c2ccccc2)c2ccccc2)CC1",
    "CAT": "Y"
  },
  {
    "COMPOUND": "CN1CCN(c2cc3c(nn2)Oc2ccccc2N3C)CC1",
    "CAT": "N"
  },
  {
    "COMPOUND": "O=C(/C=C/c1ccccc1)NCCO",
    "CAT": "N"
  },
  {
    "COMPOUND": "CCCCCCOc1ccccc1C(N)=O",
    "CAT": "N"
  },
  {
    "COMPOUND": "CCOc1ccc2nc(S(N)(=O)=O)sc2c1",
    "CAT": "N"
  },
  {
    "COMPOUND": "CCCSc1ccc2nc(NC(=O)OC)[nH]c2c1",
    "CAT": "N"
  },
  {
    "COMPOUND": "CCC1C(=O)OCC1Cc1cncn1C (stereo not given)",
    "CAT": "N"
  },
  {
    "COMPOUND": "COC(=O)C1=C(C)NC(C)=C(C(=O)OCC(C)C)C1c1ccccc1[N+](=O)[O-] (stereo not given)",
    "CAT": "Y"
  },
  {
    "COMPOUND": "CCCCCCCCCCCCCCCC(=O)OC(C)C",
    "CAT": "N"
  },
  {
    "COMPOUND": "CC1(C)[C@@H](O)CC[C@]2(C)[C@H]3C(=O)C=C4[C@@H]5C[C@@](C)(C(=O)O)CC[C@]5(C)CC[C@@]4(C)[C@]3(C)CC[C@@H]12",
    "CAT": "N"
  },
  {
    "COMPOUND": "CCOC(=O)c1ccccc1O",
    "CAT": "N"
  },
  {
    "COMPOUND": "CCCCC[C@H](O)/C=C/[C@@H]1[C@@H](C/C=C\\CCCC(=O)O)[C@@H](O)C[C@H]1O",
    "CAT": "N"
  },
  {
    "COMPOUND": "CCCOC(=O)c1ccc(O)cc1",
    "CAT": "N"
  },
  {
    "COMPOUND": "COc1cc2c3cc1Oc1cc(ccc1O)C[C@@H]1c4c(cc(OC)c(O)c4Oc4ccc(cc4)C[C@@H]3N(C)CC2)CC[N+]1(C)C",
    "CAT": "N"
  },
  {
    "COMPOUND": "O=C(OCc1ccccc1)c1ccccc1",
    "CAT": "N"
  },
  {
    "COMPOUND": "Cc1ccc(C(=O)c2ccc(CC(=O)O)n2C)cc1",
    "CAT": "N"
  },
  {
    "COMPOUND": "C[S+](CC[C@H](N)C(=O)O)C[C@H]1O[C@@H](n2cnc3c(N)ncnc32)[C@H](O)[C@@H]1O (stereo not given in full)",
    "CAT": "N"
  },
  {
    "COMPOUND": "Nc1ccc(C(=O)O)c(O)c1",
    "CAT": "N"
  },
  {
    "COMPOUND": "Cc1ccc(O)c(-n2nc3ccccc3n2)c1",
    "CAT": "N"
  }
]

----------
PROCEDURE_TEXT: Nrf2 qHTS screen for inhibitors: Validation (AID 493153)
STATED_CONDITIONS: A549 ARE-Fluc reporter, 18-24 h; measured here: cytotoxicity max response
Results filed as inconclusive are left out.
PROPERTY_LABEL: viability change (%)

[
  {
    "MOLECULE": "CC(N)C(=O)OC(C)(C)Cc1ccc(Cl)cc1 (stereo not given)",
    "READOUT_UNIT": "%",
    "MEASUREMENT": 7.67
  },
  {
    "MOLECULE": "Clc1ccc(N2CCN(Cc3c[nH]c4ncccc34)CC2)cc1",
    "READOUT_UNIT": "%",
    "MEASUREMENT": -2.66
  },
  {
    "MOLECULE": "Nc1ncnc2c1ncn2[C@@H]1O[C@H](COP(=O)(O)CP(=O)(O)OP(=O)(O)O)[C@@H](O)[C@H]1O",
    "READOUT_UNIT": "%",
    "MEASUREMENT": -5.53
  },
  {
    "MOLECULE": "COc1ccccc1CNCCCCCCNCCCCCCCCNCCCCCCNCc1ccccc1OC",
    "READOUT_UNIT": "%",
    "MEASUREMENT": -8.09
  },
  {
    "MOLECULE": "CCN(CC)c1ncnc2c1ncn2[C@@H]1O[C@H](COP(=O)(O)OP(=O)(O)C(Br)(Br)P(=O)(O)O)[C@@H](O)[C@H]1O",
    "READOUT_UNIT": "%",
    "MEASUREMENT": -6.83
  },
  {
    "MOLECULE": "CCCCCCCCCCCCCCCCCC(=O)NCC(COP(=O)([O-])OCC[N+](C)(C)C)OCC (stereo not given)",
    "READOUT_UNIT": "%",
    "MEASUREMENT": 1.48
  },
  {
    "MOLECULE": "Fc1ccc(C(OCCCc2cnc[nH]2)c2ccc(F)cc2)cc1",
    "READOUT_UNIT": "%",
    "MEASUREMENT": 0.0521
  },
  {
    "MOLECULE": "c1ccc(-c2ccccn2)nc1",
    "READOUT_UNIT": "%",
    "MEASUREMENT": -0.658
  },
  {
    "MOLECULE": "CCNC(=O)[C@H]1O[C@@H](n2cnc3c(N)nc(NCCc4ccc(CCC(=O)O)cc4)nc32)[C@H](O)[C@@H]1O",
    "READOUT_UNIT": "%",
    "MEASUREMENT": 0.951
  },
  {
    "MOLECULE": "COc1ccccc1N1CCN(CCN(C(=O)c2ccc(I)cc2)c2ccccn2)CC1",
    "READOUT_UNIT": "%",
    "MEASUREMENT": -4.45
  }
]
